// reported pIC50 per item
# Tested on: H929 cells
# Assay Remarks: Cell viability assay (H929 10 FBS)
# Type: cell-based
# Condition Details: Homo sapiens, NCI-H929, 24 hours, read-out: H929_10FBS IC50
pIC50: −log10 of the molar value.

Structure As Smiles | Target | pIC50
CN[C@@H]1CCN(C(=O)O[C@H]2/C=C/COC(C)(C)C(=O)NS(=O)(=O)c3ccc4c(c3)N(C[C@@H]3CC[C@H]32)C[C@@]2(CCCc3cc(Cl)ccc32)CO4)C1 | H929 cells | > 6.30
CN(C)[C@H]1CCN(C(=O)O[C@H]2/C=C/COC(C)(C)C(=O)NS(=O)(=O)c3ccc4c(c3)N(C[C@@H]3CC[C@H]32)C[C@@]2(CCCc3cc(Cl)ccc32)CO4)C1 | H929 cells | > 6.30
CO[C@@H]1/C=C/COC2(CCC2)C(=O)NS(=O)(=O)c2ccc3c(c2)N(C[C@@H]2CC[C@H]21)C[C@@]1(CCCc2cc(Cl)ccc21)CO3 | H929 cells | < 6.00
O=C(O[C@H]1/C=C/COC2(CCC2)C(=O)NS(=O)(=O)c2ccc3c(c2)N(C[C@@H]2CC[C@H]21)C[C@@]1(CCCc2cc(Cl)ccc21)CO3)N1CCC1 | H929 cells | > 6.30
C[C@@H]1C(=O)NS(=O)(=O)c2ccc3c(c2)N(C[C@@H]2CC[C@H]2[C@@H](OC(=O)N(C)C)/C=C/CN1C)C[C@@]1(CCCc2cc(Cl)ccc21)CO3 | H929 cells | > 6.30
CN1CC[C@H](NC(=O)O[C@H]2/C=C/COC(C)(C)C(=O)NS(=O)(=O)c3ccc4c(c3)N(C[C@@H]3CC[C@H]32)C[C@@]2(CCCc3cc(Cl)ccc32)CO4)C1 | H929 cells | > 6.30
CN(C)CCO[C@@H]1/C=C/COC(C)(C)C(=O)NS(=O)(=O)c2ccc3c(c2)N(C[C@@H]2CC[C@H]21)C[C@@]1(CCCc2cc(Cl)ccc21)CO3 | H929 cells | > 6.00
CN(C(=O)O[C@H]1/C=C/COC(C)(C)C(=O)NS(=O)(=O)c2ccc3c(c2)N(C[C@@H]2CC[C@H]21)C[C@@]1(CCCc2cc(Cl)ccc21)CO3)[C@H]1CCOC1 | H929 cells | > 6.30

Lab book: pIC50 of CO[C@H]1/C=C/CCCCC(=O)NS(=O)(=O)c2ccc3c(c2)N(C[C@@H]2CC[C@H]21)C[C@@]1(CCCc2cc(Cl)ccc21)CO3 noted as < 6.00

Lab book: pIC50 of O=C1Cc2cc(OCCN3CCOCC3)cc(c2)OC[C@@H]2CC[C@H]2CN2C[C@@]3(CCCc4cc(Cl)ccc43)COc3ccc(cc32)S(=O)(=O)N1 noted as < 6.00

====

# Tested on: H929 cells
# Assay Remarks: Cell viability assay (H929 10 FBS)
# Format: cell-based
# Condition Details: Homo sapiens, NCI-H929, 24 hours, read-out: H929_10FBS IC50
pIC50: −log10 of the molar value.
// reported pIC50 per item

Some solved entries appear below for comparison.
Compound | pIC50
CCOC1CN(C(=O)O[C@H]2/C=C/COC3(CCC3)C(=O)NS(=O)(=O)c3ccc4c(c3)N(C[C@@H]3CC[C@H]32)C[C@@]2(CCCc3cc(Cl)ccc32)CO4)C1 | > 6.30
CO[C@@H]1/C=C\CN[C@H](C)C(=O)NS(=O)(=O)c2ccc3c(c2)N(C[C@@H]2CC[C@H]21)C[C@@]1(CCCc2cc(Cl)ccc21)CO3 | < 6.00

Lab book: pIC50 of CN(C)C(=O)O[C@H]1/C=C/CN(C)C2(CCC2)C(=O)NS(=O)(=O)c2ccc3c(c2)N(C[C@@H]2CC[C@H]21)C[C@@]1(CCCc2cc(Cl)ccc21)CO3 noted as > 6.30

Lab book: pIC50 of O=C(CCc1ccncc1)NS(=O)(=O)c1ccc2c(c1)N(CC1CCC1)C[C@@]1(CCCc3cc(Cl)ccc31)CO2 (racemic) noted as < 6.00

Lab book: pIC50 of CO[C@@H]1/C=C/CCC2(CCC2)C(=O)NS(=O)(=O)c2ccc3c(c2)N(C[C@@H]2CC[C@H]21)C[C@@]1(CCCc2cc(Cl)ccc21)CO3 noted as < 6.00

Lab book: pIC50 of CC1(C)OC/C=C/[C@@H](OCCN2CCOCC2)[C@@H]2CC[C@H]2CN2C[C@@]3(CCCc4cc(Cl)ccc43)COc3ccc(cc32)S(=O)(=O)NC1=O noted as > 6.30
